These entries and their values trace back to paper PMC2756588.

Molecular target: Rvs167, P39743
Sequence (P39743 419-482): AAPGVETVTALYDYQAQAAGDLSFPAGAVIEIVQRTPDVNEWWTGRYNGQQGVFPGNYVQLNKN
Experiment: SPOT array
Settings: median of control spots 2707
Let's look at some binders and their measured SPOT intensity.

| BINDER | SPOT intensity |
| --- | --- |
| TSFKGRPKPPKTLKH | 0 |
| RKNRAPPQRPRFNRE | 4 |
| RSLRKRPTSPSISGS | 2 |
| VQQDSLPKLPFRSWG | 944 |
| GRLRPKRIAPWHLIQ | 8 |
| QFDLKMPSKPIHNLK | 6 |
| MARRRLPDRPPNGIG | 1590 |
| QQNRPLPQLPNRNNR | 1310 |
| DKSRPPRPPPKPLHL | 0 |
| STPQTMRQAPKRPDA | 0 |
| LFMKGTPEFPKSGFS | 1 |
| VRVKKRPLIRPLNSS | 7 |
| GDHPKGPPPPPPPPD | 0 |
| LKPPIGRPPKFPKSP | 0 |
| QLLNPNRRAPRRPLS | 0 |
| QRKSLRRPTLSKPAV | 0 |
| NQARKPFLLPATELS | 0 |
| AAAPKHAPPPVPNET | 0 |
| NILKRRPLKLEAPSK | 0 |
| PALPSLPPPPLLNVD | 0 |
| LKRITSPPLPPRADS | 4040 |
| RRTRLRPPTPLSQLL | 0 |
| VDFTLPPPPPPPGLD | 0 |
